# Tested on: KM12 colon
# experimental_details: NCI tumour cell line growth inhibition, 48 h; in the data active = GI50 below about 0.43 µM; inactive = the rest
Write down the outcome that applies. Available outcomes: active, inactive

// known answers, use as guide
Cc1ccc(/C(=C/C=C(C#N)C#N)Sc2nc3ccccc3s2)cc1 :: inactive
O=c1[nH]c(=O)n(C2OC(CO)C(O)C2O)cc1F (centres undefined) :: active
C=C1C(O)C2CC(C)(C)C(=O)C2=C(CC(C)C)C12CC2 (centres undefined) :: inactive
NCCCNc1nc2ccccc2c2c(=O)c3cc(F)cc(Cl)c3sc12 :: inactive
COc1ccc2c(c1)C(=O)c1c-2n(CCCCl)c(=O)c2cc(N)ccc12 :: inactive

Task item: Answer briefly: the call reported for `Cc1ccc(NC2=CC(=O)C(=O)c3ccccc32)cc1` in this assay.
Reply: inactive

Task item: Answer briefly: the call reported for `CCS(=O)(=O)N1CCN(c2ccc(Nc3ncc(C(N)=O)c(NC4CC4)n3)cc2)CC1` in this assay.
Reply: inactive

Task item: Answer briefly: the call reported for `CCC(=C(c1ccc(OCCN2CCCC2)cc1)c1ccc(OCCN2CCCC2)cc1)c1ccc(Cl)cc1` in this assay.
Reply: inactive

###

Let's look at some compounds and their measured TGI.
# Test system: MALME-3M melanoma
# experimental_details: NCI tumour cell line growth inhibition, 48 h

Task item: Item `Cc1ccc(NC2=CC(=O)C(=O)c3ccccc32)cc1` : provide TGI
Reply: 3.17 µM

Task item: Item CC(=O)OCC1OC(n2c(O)c(N=NC(N)=S)c3ccc([N+](=O)[O-])cc32)C(OC(C)=O)C1OC(C)=O (stereo not given) : provide TGI
Reply: > 100 µM

###

# Tested on: SW-620 colon
# experimental_details: NCI tumour cell line growth inhibition, 48 h
measure: TGI

# example entries with known answers
Nc1ncnc2c1ncn2CCCCC(=O)O :: > 100 µM
COC(=O)[C@@H]1[C@H]2CC[C@]3(C)[C@@H](OC(C)=O)CC[C@H]3[C@@H]2CC[C@H]1C(C)=O :: > 100 µM
C(=C\c1ccc(OCC2CO2)cc1)/C1=NCOC1 (stereo not given) :: 22.5 µM
C[Si](C)(C)/C=C/CN1C(=O)CCC1=O :: > 100 µM
Cc1ccc2c(c1)C(O)(c1ccccc1)CCS2 (stereo not given) :: > 100 µM

Task item: Item `N#CCCN(CCC#N)c1ccc(/C=C(/NC(=O)Nc2ccccc2Cl)NC(=O)c2cc([N+](=O)[O-])ccc2Cl)cc1` : provide TGI
Reply: > 100 µM

Task item: Item `O=C1c2ccccc2C(=O)c2sc(Nc3ccc([N+](=O)[O-])cc3)nc21` : provide TGI
Reply: 8.48 µM

###

# Tested on: UO-31 renal
# experimental_details: NCI tumour cell line growth inhibition, 48 h
measure: GI50

# example entries with known answers
CCOC(=O)c1cc(C(=O)c2cc(OC)c(OC)c(OC)c2)n2ccc(-c3cc[n+](CC(=O)c4cc(OC)c(OC)c(OC)c4)cc3)cc12 :: 7.97 µM
Cc1cc(OCc2nn(CN3CCN(C)CC3)c(=S)n2/N=C/c2ccc(F)cc2)ccc1Cl :: 17.6 µM
COc1ccc2c(c1)C(=O)c1c-2n(CCCCl)c(=O)c2cc(N)ccc12 :: > 100 µM

Field: next compound
Task item: Item CC(=O)O[C@H]1CC[C@]2(C)C3C(=O)C[C@]4(C)[C@@H](C(C)CCC(=O)O)CC[C@@]4(C)[C@@H]3CC[C@H]2C1(C)C (some centres undefined) : provide GI50
Reply: 40.7 µM

###

# Tested on: HOP-92 NSCLC
# experimental_details: NCI tumour cell line growth inhibition, 48 h; in the data active = GI50 below about 0.43 µM; inactive = the rest
Write down the outcome that applies. Available outcomes: active, inactive

C=C1C(=O)O[C@H]2[C@H]1CC/C(COC(=O)/C=C\C(=O)NCc1ccc(Cn3c(=O)sn(-c4ccc(Cl)cc4)c3=O)cc1)=C\CC[C@@]1(C)O[C@@H]21 :: inactive
O=C(CC1Sc2ccccc2NC1=O)NNc1ccc(F)cc1 (stereo not given) :: inactive
CC(C)(C)OC(=O)N1Cc2cc3ccccc3nc2C1CO (stereo not given) :: inactive
COc1ccc(-c2nnc(Nc3nc(O)c(C4=c5cc(Br)ccc5=NC4=O)s3)o2)cc1 :: inactive
O=C(COc1cccc(/C=C2\Oc3ccc4ccccc4c3C2=O)c1)c1ccc([N+](=O)[O-])cc1 :: inactive
Clc1ccc(N2N=C(c3cccc(Nc4ccncc4)c3)CC2c2ccc(Br)cc2)cc1 (stereo not given) :: inactive
Cc1nn(-c2ccccc2)c2nc(C)n(-c3ccc(Br)cc3)c(=O)c12 :: inactive
Cc1ccc(C2C3Cc4ccccc4C3=NN2c2ccc(S(=O)(=O)NC(=O)Nc3ccccc3)cc2)cc1 (stereo not given) :: inactive
CN(C)C/C=C/C(=O)Nc1cc2c(Nc3cccc(Cl)c3F)ncnc2cc1OCCOC(F)F :: active

Now look at this entry.
Task item: Answer briefly: the call reported for `Cn1cc(-c2nc(-c3cn(C)c4ncccc34)cs2)c2ccccc21` in this assay.
Reply: inactive

###

# System: SW-620 colon
# experimental_details: NCI tumour cell line growth inhibition, 48 h
Let's look at some compounds and their measured TGI.
// note: answer is a bare numeric in µM

# example entries with known answers
O=C(CCl)Nc1ccc(Cc2ccc(NC(=O)CCl)cc2)cc1 :: 5.25
C[C@@H](Oc1cc(-c2cnn(C3CCNCC3)c2)cnc1N)c1c(Cl)cc(F)cc1Cl :: 8.13
C1=C\CCCCN2CC[C@H]3[C@H](CCCC/C=C\CCCN4C[C@@H](CCCCC/1)C[C@@H]3C4)C2 :: 19.4

Task item: Provide TGI, tested on SW-620 colon, for `Cc1ccc(NC2=CC(=O)C(=O)c3ccccc32)cc1` .
Reply: 4.01

Task item: Provide TGI, tested on SW-620 colon, for `NC(=O)NC(=O)c1cccc(NC(=O)CCl)c1` .
Reply: 18.9

###

# System: SK-MEL-28 melanoma
# experimental_details: NCI tumour cell line growth inhibition, 48 h
measure: TGI

COc1ccc(NC(=O)c2cccc(C3CCc4c(cc(OC)c(OC)c4OC)O3)c2)cc1 (stereo unspecified) :: > 100 µM

Task item: Item `N#Cc1c(N)c2c(c(-c3ccccc3)c1-c1ccccc1)C(=O)N(O)C2=O` : provide TGI
Reply: > 100 µM

Task item: Item `Nc1nc(N)c(-c2ccc(Cl)c(Cl)c2)c(CP(Cl)(Cl)(Cl)Br)n1` : provide TGI
Reply: > 100 µM

Task item: Item `CC[C@]1(Cc2ccc(OC)c(OC)c2)C=[N+]([O-])O[C@H](OCc2ccccc2)[C@@H]1OC(C)=O` : provide TGI
Reply: 84.6 µM

Task item: Item `CCOC(=O)CCSC1=CC(=O)c2nc3ccccc3c3ccnc1c23` : provide TGI
Reply: 41.1 µM

Task item: Item `CCOC(=O)c1cc2c(n1Cc1ccccc1OC)-c1oncc1CCC2` : provide TGI
Reply: > 100 µM

###

Let's look at some compounds and their measured TGI.
# System: HCC-2998 colon
# experimental_details: NCI tumour cell line growth inhibition, 48 h

NC(=O)NC(=O)c1cccc(NC(=O)CCl)c1 :: 1.81 µM
Cc1cn2c(/C=C3\C(=O)N(C)c4ccc(Cl)cc43)c(C)nc2s1 :: 6.18 µM
O=C(CC1Sc2ccccc2NC1=O)NNc1ccc(F)cc1 (stereo not drawn) :: > 100 µM
COc1nc2c(c(=O)[nH]1)N=C(c1ccc(Cl)cc1)CC(c1ccccc1)N2 (stereo not drawn) :: > 100 µM
Cc1ccc(NC(=O)CCC(=O)C2Cc3ccccc3C2=O)cc1C (stereo not drawn) :: > 100 µM

Task item: Provide TGI, tested on HCC-2998 colon, for C(=C\c1ccc(OCC2CO2)cc1)/C1=NCOC1 (stereo not drawn) .
Reply: 22.6 µM

Task item: Provide TGI, tested on HCC-2998 colon, for COc1cc2c(cc1OC)[C@H]1C(COC(=O)Nc3ccccc3)CN1CC2 (stereo partly drawn) .
Reply: > 100 µM

Task item: Provide TGI, tested on HCC-2998 colon, for `O=C(COc1cccc(/C=C2\Oc3ccc4ccccc4c3C2=O)c1)c1ccc([N+](=O)[O-])cc1` .
Reply: > 100 µM

###

# Test system: HL-60(TB) leukemia
# experimental_details: NCI tumour cell line growth inhibition, 48 h
measure: TGI

# example entries with known answers
CCN(CC)CCCNc1cc(OC)c(OC)c2cccnc12 :: 6.55 µM
S=C1Cc2c(-c3ccccc3)cc(-c3ccc(Cl)cc3)nc2-c2ccccc2N1 :: > 100 µM
c1ccc(COC[C@H]2C3OCC([C@H](OCc4ccccc4)[C@H]3OCc3ccccc3)N2Cc2ccccc2)cc1 (some centres not stated) :: > 53.4 µM
Cc1ccc(S(=O)(=O)NNC(=O)Nc2ccc([N+](=O)[O-])cc2)cc1 :: > 100 µM
CN(C)C/C=C/C(=O)Nc1cc2c(Nc3cccc(Cl)c3F)ncnc2cc1OCCOC(F)F :: 7.23 µM
C/C=C(\C)C(=O)O[C@@H]1C=CC(=O)O[C@H]1CNC(=O)[C@H](C)O :: 32.3 µM

Task item: Item `CC[C@]1(Cc2ccc(OC)c(OC)c2)C=[N+]([O-])O[C@H](OCc2ccccc2)[C@@H]1OC(C)=O` : provide TGI
Reply: 36.3 µM

Task item: Item Cc1ccc(CN2CCN(Cc3ccc(C)o3)C(C)C2)o1 (configuration not stated) : provide TGI
Reply: > 100 µM

Task item: Item CC1=NNC(=O)C1C1C=C(c2c[nH]c3ccccc23)OC1=O (configuration not stated) : provide TGI
Reply: > 100 µM

Task item: Item `NS(=O)(=O)c1cc(C(=O)O)c(Cl)c([N+](=O)[O-])c1Cl` : provide TGI
Reply: > 100 µM

Task item: Item COc1ccc(NC(/C(C(=O)C(=O)/C=C(\O)c2ccccc2)=C(\O)c2ccccc2)c2ccc(OC)cc2)cc1 (configuration not stated) : provide TGI
Reply: 75.3 µM
